Source listed as PubChem BioAssay AID2685.

assay-procedure: qHTS Assay for Lipid Storage Modulators in Drosophila S3 Cells
condition-parameters: BODIPY lipid droplet fluorescence, 18-24 h, cells fed with added oleic acid; series mostly up to 46.1 µM
In all, about 320,000 compounds went through this assay and about 2,100 (0.66%) were called active. Another 53% or so got no clear call; they are omitted. Calls follow the shape of the dose curve; as a rule, active = well fitted inhibition curve with a large enough effect in the signal ratio, with a control signal flat (not every such curve was filed as active); inconclusive = small, poorly fitted or top-dose-only effect, or effect the other way, or a change in a side signal; inactive = flat fitted curve, though single readings scatter; the % refers to the signal ratio. The full list was thinned out, with actives kept by preference.
Answer with one of the outcomes given here: T = active, F = inactive

Look over these answered cases.
Cc1cc(C)c2c(N)c(C(=O)c3ccc(Br)cc3)oc2n1	F
CC(=O)NC(Cc1ccccc1)C(=O)OCC(=O)c1ccc(F)cc1 (stereo unspecified)	F
Cc1ccccc1CS(=O)(=O)CCC(=O)NCc1ccccn1	F
CCOC(=O)C(NC(=O)c1ccc(F)cc1)(Nc1nnc(C)s1)C(F)(F)F (stereo unspecified)	F
CN(C)C(=O)C(OC(=O)c1ccc2c(c1)CCCC2)c1ccccc1 (stereo unspecified)	T
Cc1c(N)cc(N)cc1C(=O)O	F
COc1cc(/C=C2/C(=O)N(c3ccc(Br)cc3)N=C2C)cc([N+](=O)[O-])c1O	F
Cc1c(Br)cc(C(=O)NC2CCCCC2)c(C)c1C	F

Lookup: Dear all, I need the recorded test outcome for `O=C(O)CSc1nnc(-c2ccc(Cl)cc2Cl)n1Cc1ccccc1` , thank you.
Found: T

Lookup: Dear all, I need the recorded test outcome for `CSc1nc(-c2ccc(Cl)cc2)c(C#N)c(=O)[nH]1` , thank you.
Found: F

Lookup: Dear all, I need the recorded test outcome for `CCOc1ccccc1C(=O)N1CCC(n2nnc3cc(C(F)(F)F)ccc32)CC1` , thank you.
Found: F

Lookup: Dear all, I need the recorded test outcome for `CCN(CC)C(=O)c1cccc2c1C(=O)c1ccccc1-2` , thank you.
Found: F

Lookup: Dear all, I need the recorded test outcome for CC(=O)NC(c1ccco1)c1cc(F)c2cccnc2c1O (stereo unspecified) , thank you.
Found: F

Lookup: Dear all, I need the recorded test outcome for `CC(=O)Nc1ccc(NC(=O)Nc2cc(C)cc(C)c2)cc1` , thank you.
Found: F
